Assay: Single ascending dose (SAD) pharmacokinetics in healthy volunteers
Type: in vivo, human
Conditions: human, plasma, po, 25 mg, single oral dose 25 mg, plasma; read-out: Cmax, mean (SD)
Procedure: Analytes were separated by HPLC on a Waters Atlantis T3 analytical column using a gradient mobile phase (mobile phase A: 10% acetonitrile, 90% water, 10 mM ammonium acetate, 0.3% formic acid; mobile phase B: 90% acetonitrile, 10% water, 10 mM ammonium acetate, 0.3% formic acid) run at 0.4 mL/min with initial mobile phase B concentration of 30%.
measurement-name: Cmax

# line-notation, measurement-name, experimental-value
data = [
    ("CC(=O)N1CCC(COc2cc(F)c3c(=O)[nH]c(CSC4CCOCC4)nc3c2)CC1", "Cmax", "138 ng/mL"),
]

Provenance of the data: paper PMC12209991
